From: PubChem BioAssay (NCI)

Assay: NCI Yeast Anticancer Drug Screen. Data for the cln2 rad14 strain (AID 165);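 also: 0% = growth equal to vehicle treated cultures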
Settings: S. cerevisiae cln2 rad14 strain, at 5.0 µM (retest, dose inferred, filed as 0.5), hits give high values
Method: Growth inhibition of yeast strains with defined genetic alterations is measured as a screen for potential anti-cancer activity. Selected strains with alterations in DNA damage repair or cell cycle control were exposed to compounds and growth inhibition was measured relative to vehicle treated controls. The strain used in this assay is cln2 rad14
Compounds without any hit were thinned out: in the full panel of roughly 79,000, 15% have a hit.
I'd be grateful if you could share measured growth inhibition for these entries.
Please reply with the bare figure in % and do not write the unit itself.

Fill blank: measured growth inhibition of the compound COC1CC2C=C(C)/C=C/C=C/C(=O)NC(c3ccccc3)C/C=C/CCC(O)CC(=O)C2=C1O (stereo not given) is ____.
98

Fill blank: measured growth inhibition of the compound O=C(NCC1(O)N=C(c2ccc(F)cc2)c2ccsc2-n2cccc21)c1ccc(Cl)cc1Cl (stereo not given) is ____.
2

Fill blank: measured growth inhibition of the compound CCCCCCC(=O)[O][Hg][c]1ccccc1 is ____.
99

Fill blank: measured growth inhibition of the compound OC(CN(CCCl)CCCl)C(O)C(O)C(O)CN(CCCl)CCCl (stereo not given) is ____.
-6

Fill blank: measured growth inhibition of the compound O=C1CC2CCCC(C1)N2Cc1ccccc1 is ____.
-69

Fill blank: measured growth inhibition of the compound C[C@H]1CC[C@@]2(NC1)O[C@H]1C[C@H]3[C@@H]4CC[C@H]5C[C@@H](O)CC[C@]5(C)[C@H]4CC[C@]3(C)[C@H]1[C@@H]2C is ____.
54

Fill blank: measured growth inhibition of the compound CC(Cl)CN1COc2c3c(c4ccccc4c2C1)CN(CC(C)Cl)CO3 (stereo not given) is ____.
0

Fill blank: measured growth inhibition of the compound Cc1cc(C(C)(C)c2ccc(O)c(C)c2)ccc1O is ____.
1

Fill blank: measured growth inhibition of the compound [N-]=[N+]=Nc1c([N+](=O)[O-])c(=O)n2c3c(cccc13)CCC2 is ____.
18

Fill blank: measured growth inhibition of the compound O=[N+]([O-])c1cccc(SC(Cl)(Cl)Cl)c1 is ____.
-11

Fill blank: measured growth inhibition of the compound CCCCCCCCCCCCCCCCCC[N+](C)(C)C (tested in a mixture with another compound) is ____.
78

Fill blank: measured growth inhibition of the compound c1ccc2c(c1)[O][Sn][O]2 is ____.
0

Fill blank: measured growth inhibition of the compound COC1CC(OC2C(C)OC(OC3C(C)OC(OC4CCC5(C)C(=CCC6(O)C5CC(OC(=O)c5ccc(O)cc5)C5(C)C(O)(C(C)=O)CCC65O)C4)CC3OC)CC2OC)OC(C)C1O (stereo not given) (tested in a mixture with another compound) is ____.
-7

Fill blank: measured growth inhibition of the compound CC(C)[CH2][Sn](=[O])[c]1ccccc1 is ____.
2

Fill blank: measured growth inhibition of the compound CCOc1c(Br)cc(N=Cc2ccc(N(CCCl)CCCl)c(OC)c2)cc1Br is ____.
-3

Fill blank: measured growth inhibition of the compound [O-][n+]1onc2c1-c1nonc1CC2 is ____.
8

Fill blank: measured growth inhibition of the compound CN1CCN(c2ccc3nc(-c4ccc5nc(CCCc6ccc(N(CCCl)CCCl)cc6)[nH]c5c4)[nH]c3c2)CC1 is ____.
97

Fill blank: measured growth inhibition of the compound CCN1CCC(O)(c2ccc(Cl)cc2)C(C(=O)c2ccc(Cl)cc2)C1 (stereo not given) is ____.
-7

Fill blank: measured growth inhibition of the compound CCC(CC)COC(=O)CI is ____.
15

Fill blank: measured growth inhibition of the compound CC(=O)O[C@@H]1[C@@H](O)[C@H]2O[C@@H]3C=C(C)C(=O)[C@@H](O)[C@]3(CO)[C@]1(C)[C@]21CO1 is ____.
33
